Test system: Target C
ASSAY TEXT: RT-qPCR canonical junction panel assay, Target C mRNA
Type: cell-based
ASSAY SETUP: Table 4, read-out: Target C IC50 (decrease in CJ mRNA levels)
pIC50: −log10 of the molar value. Structures can show the parent of a compound that is named as a salt.
Measured pIC50 by item

Answered cases to consult:
INSERT INTO results (molecule, metric, result) VALUES
  ('Cn1cc2cc(-c3ccc4cc(N5CCNCC5)cc(F)c4n3)cc(F)c2n1 [Compound 516]', 'pIC50', '6.00 to 7.00'),
  ('CNC(=O)c1nc(-c2cc3cn(C)nc3c(C)c2O)nc2ccc(N3CCC(N(C)C)CC3)cc12 [Compound 507]', 'pIC50', '5.00 to 6.00'),
  ('Cc1nc2c(F)c(O)c(-c3ccc4nc(N5CC[C@@H](NC6CCC6)C5)ccc4n3)cc2o1 (single isomer, unassigned) [Compound 307]', 'pIC50', '> 7.00'),
  ('Cc1nc2c(F)cc(-c3ncc4cc(N5C[C@H](C)N[C@@H](C)C5)ccc4n3)cn2n1 [Compound 819, hydrochloride]', 'pIC50', '5.00 to 6.00'),
  ('CNC(=O)c1nc(-c2cc3cn(C)nc3c(C)c2O)nc2ccc(N3CCN[C@@H](C)C3)cc12 (single isomer, unassigned) [Compound 512]', 'pIC50', '5.00 to 6.00');

Entry Cc1nc2c(C)c(O)c(-c3ccc4cc(N5CC[C@H](NC(C)(C)C)C5)ncc4n3)cc2o1 (single isomer, unassigned) [Compound 445] : reported pIC50 = ? 5.00 to 6.00

Try this molecule next: Cc1cn2cc(-c3ncc4cc(N5C[C@H](C)N[C@@H](C)C5)ccc4n3)cc(F)c2n1 [Compound 803] 6.00 to 7.00

Could you do the same for Cc1nc2cc(O)c(-c3ccc4nc(N5CC[C@@H](NC(C)(C)C)C5)ncc4n3)cc2o1 [Compound 413] , please? > 7.00

Then this molecule: Cc1nc2c(F)c(O)c(-c3ccc4nc(N5CC[C@@H](NC6(C)CC6)C5)ccc4n3)cc2o1 (stereo in doubt) [Compound 326] > 7.00

What about Cn1cc2cc(-c3cc4ccc(C5CCNCC5)nc4cn3)c(O)cc2n1 [Compound 104] ? 5.00 to 6.00

Could you do the same for Cn1cc2cc(-c3ccc4nc(N5CC[C@H](NC6CCC6)C5)ccc4n3)c(O)cc2n1 [Compound 156] , please? 6.00 to 7.00

Field entry: Cc1nc2cc(O)c(-c3ccc4nc(N5CCC(N)CC5)ccc4n3)cc2o1 [Compound 424] 5.00 to 6.00

Same question, Cc1nc2c(F)c(O)c(-c3ccc4nc(N5CC[C@H](NCC6CC6)C5)ccc4n3)cc2o1 (single isomer, unassigned) [Compound 324] this time > 7.00

Do the same for CN[C@H]1CCN(c2ccc3nc(-c4cc(F)c5nc(C)cn5c4)ncc3n2)C1 [Compound 332] please 6.00 to 7.00

What do you have for CCc1nc2cc(O)c(-c3ccc4nc(N5CC[C@H](NC(C)(C)C)C5)ccc4n3)cc2o1 (single isomer, unassigned) [Compound 809] ? 5.00 to 6.00

Source of measurements: patent US20250092065A1
